- test-protocol: NCI Yeast Anticancer Drug Screen. Data for the sgs1 strain (AID 173);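 further: 0% = growth of vehicle-only control cultures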
- condition-set: S. cerevisiae sgs1 mutant, at 11.0 µM, hits give high values
- Description: Growth inhibition of yeast strains with defined genetic alterations is measured as a screen for potential anti-cancer activity. Selected strains with alterations in DNA damage repair or cell cycle control were exposed to compounds and growth inhibition was measured relative to vehicle treated controls. The strain used in this assay is sgs1
The panel holds about 79,000 compounds, 15% with a hit somewhere; the sample as a whole holds those more often.
quantity-kind: growth inhibition (%)

molecule	quantity-kind	value-measured
CCc1c(Cl)c(C)c(Cl)c(O)c1Cl	growth inhibition	14
CC1=CC(=O)C=CC1=Nc1cc(Cl)c(O)c(Cl)c1	growth inhibition	-17
COc1ccc2c3c1OC(C)C31CC(=O)CCC1CC2 (stereo unspecified)	growth inhibition	-8
O=[N+]([O-])c1ccc(S(=O)(=O)Cc2ccccc2)c([N+](=O)[O-])c1	growth inhibition	65
CC(CN(C)C)C(=O)/C=C/c1ccc(Cl)c(Cl)c1 (stereo unspecified)	growth inhibition	25
CC1C(c2ccccc2)SC(=N)N1C (stereo unspecified)	growth inhibition	1

All figures here come from PubChem BioAssay (NCI).
